# Test Target: Testis-specific serine/threonine-protein kinase 2 (Homo sapiens) (UniProt Q96PF2);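 also: each value is the mean percent inhibition of TSSK2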
# Sequence (Q96PF2 whole entry): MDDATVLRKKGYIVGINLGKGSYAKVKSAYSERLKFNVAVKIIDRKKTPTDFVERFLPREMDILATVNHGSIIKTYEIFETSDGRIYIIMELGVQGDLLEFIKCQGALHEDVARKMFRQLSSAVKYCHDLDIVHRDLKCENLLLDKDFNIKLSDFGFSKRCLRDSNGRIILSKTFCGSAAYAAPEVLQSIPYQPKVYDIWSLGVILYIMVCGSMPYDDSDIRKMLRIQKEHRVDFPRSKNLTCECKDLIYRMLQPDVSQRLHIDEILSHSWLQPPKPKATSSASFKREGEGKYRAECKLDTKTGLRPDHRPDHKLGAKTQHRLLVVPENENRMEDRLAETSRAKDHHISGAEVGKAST
# Condition Set: at 1 µM
Entries annotated with measured inhibition

# Item Smiles, Test Target, inhibition
records = [
    ("Fc1ccc(-c2nn3ccccc3c2-c2ccncc2)cc1", "Testis-specific serine/threonine-protein kinase 2 (Homo sapiens) (UniProt Q96PF2)", "0.24%"),
    ("CCN1CCC(CC(=O)Nc2n[nH]c3nnc(-c4cccc(F)c4F)cc23)CC1", "Testis-specific serine/threonine-protein kinase 2 (Homo sapiens) (UniProt Q96PF2)", "1.74%"),
    ("CC(C)COC(=O)c1ccc2c(c1)/C(=C/Nc1ccc(S(N)(=O)=O)cc1)C(=O)N2", "Testis-specific serine/threonine-protein kinase 2 (Homo sapiens) (UniProt Q96PF2)", "0.83%"),
    ("Fc1ccc(-c2nn3ncccc3c2-c2ccnc(Nc3ccc4c(c3)OCCO4)n2)cc1", "Testis-specific serine/threonine-protein kinase 2 (Homo sapiens) (UniProt Q96PF2)", "1.02%"),
    ("COc1cc2c(cc1Nc1nc(Nc3ccsc3C(N)=O)c3cc[nH]c3n1)N(C(=O)CN(C)C)CCC2(C)C", "Testis-specific serine/threonine-protein kinase 2 (Homo sapiens) (UniProt Q96PF2)", "94.6%"),
    ("Cc1cccc2c1NC(=O)/C2=N\\Nc1ccc(S(N)(=O)=O)cc1", "Testis-specific serine/threonine-protein kinase 2 (Homo sapiens) (UniProt Q96PF2)", "-1.61%"),
    ("Nc1ncc(-c2cccc(S(N)(=O)=O)c2)c2scc(-c3ccc(F)c(Cl)c3)c12", "Testis-specific serine/threonine-protein kinase 2 (Homo sapiens) (UniProt Q96PF2)", "2.51%"),
    ("CCn1cc(-c2ccnc3[nH]ccc23)c(-c2cccc(NC(=O)Nc3ccc(OCc4ccccc4)cc3)c2)n1", "Testis-specific serine/threonine-protein kinase 2 (Homo sapiens) (UniProt Q96PF2)", "-0.63%"),
    ("COc1ccc(-c2cc3c(N)ncnc3o2)cc1", "Testis-specific serine/threonine-protein kinase 2 (Homo sapiens) (UniProt Q96PF2)", "-0.58%"),
    ("CCn1c(-c2nonc2N)nc2cnc(Oc3cccc(NC(=O)c4ccc(N(C)C)cc4)c3)cc21", "Testis-specific serine/threonine-protein kinase 2 (Homo sapiens) (UniProt Q96PF2)", "-0.76%"),
    ("Cc1ccc2c(-c3ccnc(Nc4ccccc4)n3)c(-c3ccc(F)cc3)nn2n1", "Testis-specific serine/threonine-protein kinase 2 (Homo sapiens) (UniProt Q96PF2)", "-2.67%"),
    ("N#Cc1c(NC(=O)c2ccc(F)cc2)sc2c1CCCC2", "Testis-specific serine/threonine-protein kinase 2 (Homo sapiens) (UniProt Q96PF2)", "0.33%"),
]

----------
# Test system: Platelet-derived growth factor receptor alpha (Homo sapiens), P16234 [V561D]
# Sequence (P16234 whole entry V561D): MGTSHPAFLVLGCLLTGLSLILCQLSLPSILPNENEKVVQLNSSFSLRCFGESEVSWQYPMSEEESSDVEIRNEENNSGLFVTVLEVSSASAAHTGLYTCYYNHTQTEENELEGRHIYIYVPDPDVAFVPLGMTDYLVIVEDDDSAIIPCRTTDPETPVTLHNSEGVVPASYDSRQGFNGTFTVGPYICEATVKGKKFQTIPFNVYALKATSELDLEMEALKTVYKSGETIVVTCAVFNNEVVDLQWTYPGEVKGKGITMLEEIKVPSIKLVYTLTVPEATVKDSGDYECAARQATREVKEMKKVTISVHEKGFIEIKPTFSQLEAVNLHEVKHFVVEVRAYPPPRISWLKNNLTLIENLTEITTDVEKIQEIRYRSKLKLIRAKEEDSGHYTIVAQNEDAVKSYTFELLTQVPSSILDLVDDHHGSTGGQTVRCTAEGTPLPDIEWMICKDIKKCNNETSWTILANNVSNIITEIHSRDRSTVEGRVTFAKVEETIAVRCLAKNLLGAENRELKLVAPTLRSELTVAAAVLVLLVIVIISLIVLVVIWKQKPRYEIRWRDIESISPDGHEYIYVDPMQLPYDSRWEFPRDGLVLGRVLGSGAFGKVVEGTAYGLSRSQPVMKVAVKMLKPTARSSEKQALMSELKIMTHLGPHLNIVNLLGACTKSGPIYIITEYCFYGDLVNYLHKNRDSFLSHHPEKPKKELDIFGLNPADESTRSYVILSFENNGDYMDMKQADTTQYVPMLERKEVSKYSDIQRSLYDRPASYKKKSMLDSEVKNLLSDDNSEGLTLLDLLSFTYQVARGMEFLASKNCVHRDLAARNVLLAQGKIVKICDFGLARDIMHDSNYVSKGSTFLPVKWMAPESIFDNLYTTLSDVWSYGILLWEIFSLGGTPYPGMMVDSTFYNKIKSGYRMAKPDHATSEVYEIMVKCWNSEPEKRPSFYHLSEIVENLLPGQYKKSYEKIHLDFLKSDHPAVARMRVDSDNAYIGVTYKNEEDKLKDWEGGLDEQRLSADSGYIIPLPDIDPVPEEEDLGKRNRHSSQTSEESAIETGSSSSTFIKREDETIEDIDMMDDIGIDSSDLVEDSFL
# Condition Set: at 0.1 µM
Entries annotated with measured inhibition
Quantity Measured: inhibition (%)

# Item Smiles, Units Symbol, Test Value
data = [
    ("CCN(CC)S(=O)(=O)c1ccc(OC)c(Nc2ncc(-c3ccccc3)o2)c1", "%", 10.1),
    ("Fc1ccc(-c2nn3ncccc3c2-c2ccnc(Nc3ccc4c(c3)OCCO4)n2)cc1", "%", 21.9),
    ("CCn1cc(-c2ccnc3[nH]ccc23)c(-c2cccc(NC(=O)Nc3ccc(OCc4ccccc4)cc3)c2)n1", "%", -0.44),
]
